Sourced from ChEMBL document CHEMBL5316263

- measured.target: Protein cereblon/Histone deacetylase 8 (Homo sapiens, UniProt Q96SW2+Q9BY41)
- Sequence (Q9BY41 whole entry): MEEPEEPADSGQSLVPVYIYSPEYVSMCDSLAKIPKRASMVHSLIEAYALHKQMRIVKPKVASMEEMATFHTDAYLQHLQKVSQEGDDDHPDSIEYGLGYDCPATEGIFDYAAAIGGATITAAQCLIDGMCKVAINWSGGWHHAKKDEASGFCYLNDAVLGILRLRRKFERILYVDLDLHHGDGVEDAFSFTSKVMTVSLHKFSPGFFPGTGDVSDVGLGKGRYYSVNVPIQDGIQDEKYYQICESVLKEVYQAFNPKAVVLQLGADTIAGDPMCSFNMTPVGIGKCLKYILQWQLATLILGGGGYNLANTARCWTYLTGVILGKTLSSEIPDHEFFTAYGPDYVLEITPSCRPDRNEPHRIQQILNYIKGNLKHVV
- Sequence (Q96SW2 whole entry): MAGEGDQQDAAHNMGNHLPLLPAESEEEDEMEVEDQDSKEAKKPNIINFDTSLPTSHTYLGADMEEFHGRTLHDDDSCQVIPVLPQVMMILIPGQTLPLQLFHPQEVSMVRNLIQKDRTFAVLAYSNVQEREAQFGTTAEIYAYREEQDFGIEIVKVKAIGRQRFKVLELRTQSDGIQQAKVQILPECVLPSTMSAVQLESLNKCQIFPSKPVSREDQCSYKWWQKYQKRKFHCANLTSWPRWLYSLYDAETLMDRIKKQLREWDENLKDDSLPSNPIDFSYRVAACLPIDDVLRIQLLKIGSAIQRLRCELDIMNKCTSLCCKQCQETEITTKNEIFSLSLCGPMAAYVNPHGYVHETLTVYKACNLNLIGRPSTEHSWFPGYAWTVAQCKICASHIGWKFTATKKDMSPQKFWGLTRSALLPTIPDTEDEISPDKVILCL
- assay.overview: Protac activity at CRBN/HDAC8 in human A549 cells assessed as degradation of HDAC8 incubated for 20 hrs by ELISA method
Listed here are molecules together with their documented pEC50.
Please report pEC50 as the negative decimal logarithm of the molar concentration, giving only the number.

Example results:
O=C1CCC(N2C(=O)c3cccc(NCc4cn(CCCCCCOc5ccc(Cn6ccc7ccc(C(=O)NO)cc76)cc5)nn4)c3C2=O)C(=O)N1 (stereo not drawn) = 6.24
O=C1CCC(N2C(=O)c3cccc(NCc4cn(CCCCCOc5ccc(Cn6ccc7ccc(C(=O)NO)cc76)cc5)nn4)c3C2=O)C(=O)N1 (stereo not drawn) = 6.21

We now examine a further molecule.
Exercise: Report measured pEC50 on Protein cereblon/Histone deacetylase 8 (Homo sapiens, UniProt Q96SW2+Q9BY41); entry: O=C1CCC(N2C(=O)c3cccc(NCc4cn(CCCCOc5ccc(Cn6ccc7ccc(C(=O)NO)cc76)cc5)nn4)c3C2=O)C(=O)N1 (stereo not drawn)
Key: 6.33

* * *

- measured.target: von Hippel-Lindau disease tumor suppressor/Histone deacetylase 8 (Homo sapiens) (UniProt Q9BY41+P40337)
- Sequence (P40337 whole entry, looked up): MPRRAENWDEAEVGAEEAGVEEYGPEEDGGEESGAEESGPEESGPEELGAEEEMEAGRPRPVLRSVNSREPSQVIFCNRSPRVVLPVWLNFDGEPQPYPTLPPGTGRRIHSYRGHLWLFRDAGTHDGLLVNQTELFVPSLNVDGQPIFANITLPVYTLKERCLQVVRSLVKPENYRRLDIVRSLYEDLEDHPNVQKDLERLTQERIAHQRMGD
- Sequence (Q9BY41 whole entry, looked up): as the sequence (Q9BY41 whole entry) above
- assay.overview: Protac activity at VHL/HDAC8 in human A549 cells assessed as degradation of HDAC8 at 2 uM measured after 20 hrs by Western blot analysis relative to control
- Type: cell-based
Listed here are molecules together with their documented Activity.
Give the value in % but do not write % after it.

Cc1ncsc1-c1ccc([C@H](C)NC(=O)[C@@H]2C[C@@H](O)CN2C(=O)[C@@H](NC(=O)CCCCCCOc2ccc(Cn3ccc4ccc(C(=O)NO)cc43)cc2)C(C)(C)C)cc1 = 73.6
Cc1ncsc1-c1ccc([C@H](C)NC(=O)[C@@H]2C[C@@H](O)CN2C(=O)[C@@H](NC(=O)COCCOCCOc2ccc(Cn3ccc4ccc(C(=O)NO)cc43)cc2)C(C)(C)C)cc1 = 75.3

Exercise: Provide only the value of recorded Activity for Cc1ncsc1-c1ccc([C@H](C)NC(=O)[C@@H]2C[C@@H](O)CN2C(=O)[C@@H](NC(=O)COCCOc2ccc(Cn3ccc4ccc(C(=O)NO)cc43)cc2)C(C)(C)C)cc1
Key: 91.3

Exercise: Provide only the value of recorded Activity for Cc1ncsc1-c1ccc([C@H](C)NC(=O)[C@@H]2C[C@@H](O)CN2C(=O)[C@@H](NC(=O)CCCCCOc2ccc(Cn3ccc4ccc(C(=O)NO)cc43)cc2)C(C)(C)C)cc1
Key: 51.4

Exercise: Provide only the value of recorded Activity for Cc1ncsc1-c1ccc([C@H](C)NC(=O)[C@@H]2C[C@@H](O)CN2C(=O)[C@@H](NC(=O)COCCOCCOCCOCCOc2ccc(Cn3ccc4ccc(C(=O)NO)cc43)cc2)C(C)(C)C)cc1
Key: 72.9

* * *

- Test system: A549
- assay.overview: Antiproliferative activity against human A549 cells assessed as inhibition of cell growth measured after 72 hrs by CCK-8 method
- Assay type: functional, cell-based
- measurement.context: A549, 72 h
test.readout: IC50 (µM)
Give the value in µM but do not write µM after it.

Example results:
COc1ccc(Cn2ccc3ccc(C(=O)NO)cc32)cc1 = 15.8
O=C1CCC(N2C(=O)c3cccc(NCc4cn(CCCCCOc5ccc(Cn6ccc7ccc(C(=O)NO)cc76)cc5)nn4)c3C2=O)C(=O)N1 (centres undefined) = 12.5
O=C1CCC(N2C(=O)c3cccc(NCc4cn(CCOCCOc5ccc(Cn6ccc7ccc(C(=O)NO)cc76)cc5)nn4)c3C2=O)C(=O)N1 (centres undefined) = 9.55

We now examine a further compound.
Exercise: Report measured IC50 on A549; entry: O=C1CCC(N2C(=O)c3cccc(NCc4cn(CCCCOc5ccc(Cn6ccc7ccc(C(=O)NO)cc76)cc5)nn4)c3C2=O)C(=O)N1 (centres undefined)
Key: 7.11
